- Assay Text: Pharmacokinetic study in vivo in mice
- Test Context: mouse, plasma; intravenous administration, male C57BL/6J mice, dose 1.74-1.94 mg/kg; read-out: apparent volume of distribution Vdss
Outcome Measure: Vd (L/kg)
Entry rule: numbers only, all in L/kg.

Request: Item C#Cc1c(F)ccc2cc(N)cc(-c3c(F)cc4c(N5CC6C=CC(C5)N6)nc(OC[C@@]56CCCN5C[C@H](F)C6)nc4c3F)c12 [Compound 002A] has what recorded Vd?
Result: 56.3

* * *

- Assay Text: Pharmacokinetic study in vivo in mice
- Test Context: mouse, plasma; oral administration, male C57BL/6J mice, dose 28.2-51.0 mg/kg; read-out: peak time Tmax
Outcome Measure: Tmax (h)
Entry rule: numbers only, all in h.

Request: Item C#Cc1c(F)ccc2cc(N)cc(-c3c(F)cc4c(N5CC6C=CC(C5)N6)nc(OC[C@@]56CCCN5C[C@H](F)C6)nc4c3F)c12 [Compound 002A] has what recorded Tmax?
Result: 1.13

* * *

- Target Of Assay: KRAS^G12D (Homo sapiens (Human), UniProt P01116, G12D)
- Sequence (P01116-2 other isoform, or with tags, fused parts or gaps G12D): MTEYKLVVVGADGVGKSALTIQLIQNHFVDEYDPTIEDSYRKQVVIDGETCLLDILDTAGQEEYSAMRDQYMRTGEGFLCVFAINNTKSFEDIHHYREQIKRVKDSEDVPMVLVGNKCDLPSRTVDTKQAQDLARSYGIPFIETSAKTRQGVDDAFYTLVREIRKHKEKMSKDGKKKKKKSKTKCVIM
- Assay Text: SOS1-mediated binding of KRAS^G12D to effector protein c-Raf (TR-FRET)
- Type: biochemical
- Test Context: KRAS G12D/c-Raf/SOS1/GTP, read-out: IC50 Values of Compounds for KRAS^G12D Activity
Outcome Measure: IC50 (nM)
Entry rule: numbers only, all in nM.

Below are worked cases with known answers.
[[record]]
compound = "C#Cc1c(F)ccc2cc(N)cc(-c3ccc4c(N5CC6C=CC(C5)N6)nc(OC[C@@]56CCCN5C[C@H](F)C6)nc4c3F)c12"
unit_abbreviation = "nM"
measured_number = 20.4

[[record]]
compound = "C#Cc1c(F)ccc2cc(N)cc(-c3c(F)cc4c(N5CC6C=CC(C5)N6)nc(OC[C@@]56CCCN5C[C@H](F)C6)nc4c3F)c12 [Compound 002A]"
unit_abbreviation = "nM"
measured_number = 23.7

[[record]]
compound = "C#Cc1c(F)ccc2cc(N)cc(-c3cc(OC)c4c(N5CC6C=CC(C5)N6)nc(OC[C@@]56CCCN5C[C@H](F)C6)nc4c3F)c12"
unit_abbreviation = "nM"
measured_number = 37.4

[[record]]
compound = "C#Cc1c(F)ccc2cc(N)cc(-c3c(Cl)cc4c(N5CC6C=CC(C5)N6)nc(OC[C@@]56CCCN5C[C@H](F)C6)nc4c3F)c12 [Compound 001B]"
unit_abbreviation = "nM"
measured_number = 18.9


Attention now shifts to the item below.
Request: Item C#Cc1c(F)ccc2cc(O)cc(-c3ccc4c(N5CC6C=CC(C5)N6)nc(OC[C@@]56CCCN5C[C@H](F)C6)nc4c3F)c12 has what recorded IC50?
Result: 12.3
